// data source = paper PMC9352680

Molecular target: T1, PUF4 RNA-binding domain (Saccharomyces cerevisiae, UniProt P25339 537-888)
T1 sequence: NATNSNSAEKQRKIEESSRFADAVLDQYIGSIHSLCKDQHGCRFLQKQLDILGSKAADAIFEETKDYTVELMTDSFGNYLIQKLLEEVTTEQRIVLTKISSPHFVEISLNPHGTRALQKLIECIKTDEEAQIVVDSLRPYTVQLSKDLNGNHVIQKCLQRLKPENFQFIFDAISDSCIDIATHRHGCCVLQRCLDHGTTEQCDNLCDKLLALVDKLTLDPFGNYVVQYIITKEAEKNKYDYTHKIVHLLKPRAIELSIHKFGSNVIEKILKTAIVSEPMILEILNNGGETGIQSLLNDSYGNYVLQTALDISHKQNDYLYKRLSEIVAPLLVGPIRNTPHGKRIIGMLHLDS
Test: Mg; RNA-MaP; 20 mM Na-HEPES pH 7.4, 30 mM KOAc, 0.75 mM MgCl2, 0.1% Tween-20, 5% glycerol, 0.1 mg/mL BSA, 2 mM DTT; 25 C; 0.0125-409.6 nM protein
Conditions: tags: N-His6-TEV cleaved; C-SNAP kept, Cy3B-labelled; label: tethered on chip by stalled RNA polymerase
measurementKind: Kd

Would you please look over these solved cases?
# lookup: Kd of Id_ii_S2_P4E.3_K4.2_C4.2_[C-2G]_H4.2_A4.1_F4.1_T4.2_[G10T]_[T11G] (ssRNA) RNA: UUUGAUUAAUAUGAUAUCGUUCUUUCUGUUAUAUAUUAUGUUCUUUCUCGAUAUCAUAUUAAUCUUU 11.2 nM

# lookup: Kd of UCUCUUCAUAUAUUAUUAGCUCUCUU (ssRNA) [Id_ii_S1_P5E.3_K5.2_C5.2_[T-1A]_H5.2_A5.1_F5.1_T5.2_[T11G]_[A12C]] 157 nM

# lookup: Kd of Id_i_S4_P3E.3_K3.2_C3.2_[C-2T]_[T-1G]_H3.2_A3.1_F3.1_T3.2 (ssRNA) RNA: UUUGACAACUGAUCGUUCUUUCUUGUAUAUAUAUAUUCUUUCUCGAUCAGUUGUCUUU 4.75 nM

# lookup: Kd of Ic_S2_P4E.1_K4.1_C4.1_H4.1_A4.1_[T5C]_[A6C]_[T7C]_F4.1_[T8A]_[A9T]_T4.1 (ssRNA) RNA: UUUGAUUAAUAUGAUAUCGUUCUUUCUUGUACCCAUUUCUUUCUCGAUAUCAUAUUAAUCUUU 81.4 nM

# lookup: Kd of Id_ii_S2_P4E.4_K4.3_C4.2_[C-2T]_H4.3_A4.1_F4.1_T4.2 (ssRNA) RNA: UUUGAUUAAUAUGAUAUCGUUCUUUCUUUACACUAUUAGUUUCUUUCUCGAUAUCAUAUUAAUCUUU 2020 nM

# lookup: Kd of ACAAACAUACACUAUUAAAACAAAC (ssRNA) [Id_ii_S3_P4E.4_K4.3_C4.2_[C-2A]_H4.3_A4.1_F4.1_T4.2_[G10A]_[T11A]] 1130 nM

New cases:
# lookup: Kd of Ib_S4_P3E.1_K3.1_C3.1_H3.1_[A4C]_A3.1_F3.1_[A8T]_T3.1 (ssRNA) RNA: UUUGACAACUGAUCGUUCUUUCUUGUCUAUUUUCUUUCUCGAUCAGUUGUCUUU 289 nM

# lookup: Kd of Ic_S4_P5E.1_K5.1_C5.1_H5.1_A5.1_[T5A]_[T6C]_[A7T]_F5.1_[T8A]_[A10C]_T5.1 (ssRNA) RNA: UUUGACAACUGAUCGUUCUUUCUUGUAACUAUCUUCUUUCUCGAUCAGUUGUCUUU 156 nM

# lookup: Kd of Ie_S2_P4E.1_K4.1_C4.1_H4.1_[+2CT]_A4.1_F4.1_T4.1 (ssRNA) RNA: UUUGAUUAAUAUGAUAUCGUUCUUUCUUGCUUAUAUUAUUCUUUCUCGAUAUCAUAUUAAUCUUU 198 nM

# lookup: Kd of UCUCUUUGUAGCCGUCUCUU (ssRNA) [Ic_S1_P3E.1_K3.1_C3.1_H3.1_A3.1_[T5G]_[A6C]_F3.1_[T7C]_[A8G]_T3.1] > 2300 nM

# lookup: Kd of Ic_S4_P5E.1_K5.1_C5.1_H5.1_A5.1_[T5A]_[A7T]_F5.1_[T8A]_[A10C]_T5.1 (ssRNA) RNA: UUUGACAACUGAUCGUUCUUUCUUGUAAUUAUCUUCUUUCUCGAUCAGUUGUCUUU 126 nM

# lookup: Kd of UCUCUUACUGUAUAUAUUUCUCUU (ssRNA) [Id_ii_S1_P3E.2_K3.1_C3.2_[C-2A]_[T-1C]_H3.1_A3.1_F3.1_T3.2_[A10T]] 10.8 nM
